tested on: HIV-1 from patient plasma samples; experiment: PHENOSENSE HIV phenotypic susceptibility assay, fold change in IC50 of patient virus versus NL4-3 reference virus; type: cell-based; details: Patient IC50/reference (NL4-3) IC50; mean over 1515 patient samples without resistance-selected mutations
This section presents compounds with their documented Fold change (FC) in IC50, mean values.
Answer as a number with no unit attached.

Cc1cccc(C)c1OCC(=O)N[C@@H](Cc1ccccc1)[C@@H](O)C[C@H](Cc1ccccc1)NC(=O)[C@H](C(C)C)N1CCCNC1=O = 0.68

Query string: Please look up its Fold change (FC) in IC50, mean: "CC(C)(C)NC(=O)[C@@H]1CN(Cc2cccnc2)CCN1C[C@@H](O)C[C@@H](Cc1ccccc1)C(=O)N[C@H]1c2ccccc2C[C@H]1O"
Result string: 0.78

Query string: Proceed to "CC(C)CN(C[C@@H](O)[C@H](Cc1ccccc1)NC(=O)O[C@H]1CCOC1)S(=O)(=O)c1ccc(N)cc1"
Result string: 0.69

Query string: Proceed to "CC(C)(C)NC(=O)[C@@H]1C[C@@H]2CCCC[C@@H]2CN1C[C@@H](O)[C@H](Cc1ccccc1)NC(=O)[C@H](CC(N)=O)NC(=O)c1ccc2ccccc2n1"
Result string: 0.70

Query string: Proceed to "CC(C)c1nc(CN(C)C(=O)N[C@H](C(=O)N[C@@H](Cc2ccccc2)C[C@H](O)[C@H](Cc2ccccc2)NC(=O)OCc2cncs2)C(C)C)cs1"
Result string: 0.82

Query string: Proceed to "Cc1c(O)cccc1C(=O)N[C@@H](CSc1ccccc1)[C@H](O)CN1C[C@H]2CCCC[C@H]2C[C@H]1C(=O)NC(C)(C)C"
Result string: 1.05
